Tested on: MDA-MB-231
Run Description: Cytotoxicity against human MDA-MB-231 cells
Type: functional
The label is Satisfied for GI50 below 0.9 µM and Not satisfied for GI50 equal to or exceeding 0.9 µM.

{"columns": ["Smiles", "Class"],
 "data": [
  ["COc1cc(/C=C/c2cc(O)c3cc[nH]c3c2)cc2c1O[C@]1(C)CC[C@@H](O)C(C)(C)[C@H]1C2", "Not satisfied"],
  ["COc1cc(/C=C/c2cc(O)c3c(CC=C(C)C)c[nH]c3c2)cc2c1O[C@]1(C)CC[C@@H](O)C(C)(C)[C@H]1C2", "Satisfied"],
  ["COc1cc(/C=C/c2cc(O)c3cc(CC=C(C)C)[nH]c3c2)cc2c1O[C@]1(C)CC[C@@H](O)C(C)(C)[C@H]1C2", "Not satisfied"],
  ["COc1cc(/C=C/c2cc(OC)c3cc[nH]c3c2)cc2c1O[C@]1(C)CC[C@@H](O)C(C)(C)[C@H]1C2", "Satisfied"],
  ["COc1cc(/C=C/c2cc(O)c3c(c2)C[C@@H]2C(C)(C)[C@H](O)CC[C@@]2(C)O3)cc2c1ccn2C", "Not satisfied"]
]}

###

Tested on: NCI-H226
Run Description: Cytotoxicity against human NCI-H226 cells
Assay type: functional
Condition Parameters: read-out: pTGI (converted)
Recorded log10(TGI) by entry
Quantity: log10(TGI) (log10 of the value in µM)

{"columns": ["Smiles", "Quantity", "Recorded Value"],
 "data": [
  ["COc1cc(/C=C/c2cc(O)c3ccn(C)c3c2)cc2c1O[C@]1(C)CC[C@@H](O)C(C)(C)[C@H]1C2", "log10(TGI)", 1.43],
  ["COc1cc(/C=C/c2cc(OC)c3cc[nH]c3c2)cc2c1O[C@]1(C)CC[C@@H](O)C(C)(C)[C@H]1C2", "log10(TGI)", 0.85],
  ["CC1(C)[C@H](O)CC[C@@]2(C)Oc3c(O)cc(/C=C/c4cc(O)c5cc[nH]c5c4)cc3C[C@H]12", "log10(TGI)", 1.88],
  ["COc1cc(/C=C/c2cc(O)c3c(CC=C(C)C)c[nH]c3c2)cc2c1O[C@]1(C)CC[C@@H](O)C(C)(C)[C@H]1C2", "log10(TGI)", 1.70],
  ["COc1cc(/C=C/c2cc(O)c3c(c2)C[C@@H]2C(C)(C)[C@H](O)CC[C@@]2(C)O3)cc2c1ccn2C", "log10(TGI)", 1.78],
  ["COc1cc(/C=C/c2cc(OC)c3c(CC=C(C)C)c[nH]c3c2)cc2c1O[C@]1(C)CC[C@@H](O)C(C)(C)[C@H]1C2", "log10(TGI)", 0.99],
  ["COc1cc(/C=C/c2cc(O)c3cc[nH]c3c2)cc2c1O[C@]1(C)CC[C@@H](O)C(C)(C)[C@H]1C2", "log10(TGI)", 1.46],
  ["COc1cc(/C=C/c2cc(O)c3c(c2)C[C@@H]2C(C)(C)[C@H](O)CC[C@@]2(C)O3)cc2[nH]cc(CC=C(C)C)c12", "log10(TGI)", 1.52]
]}

###

System: RXF 393
Run Description: Cytotoxicity against human RXF393 cells
Format: functional
Condition Parameters: read-out: pTGI (converted)
Quantity: TGI (nM)

{"columns": ["Smiles", "Recorded Value"],
 "data": [
  ["CC1(C)[C@H](O)CC[C@@]2(C)Oc3c(O)cc(/C=C/c4cc(O)c5cc[nH]c5c4)cc3C[C@H]12", 24.6],
  ["COc1cc(/C=C/c2cc(O)c3c(c2)C[C@@H]2C(C)(C)[C@H](O)CC[C@@]2(C)O3)cc2c1ccn2C", 1580],
  ["COc1cc(/C=C/c2cc(O)c3ccn(C)c3c2)cc2c1O[C@]1(C)CC[C@@H](O)C(C)(C)[C@H]1C2", 120],
  ["COc1cc(/C=C/c2cc(O)c3cc(CC=C(C)C)[nH]c3c2)cc2c1O[C@]1(C)CC[C@@H](O)C(C)(C)[C@H]1C2", 447]
]}
